# Run Description: Microsome t1/2, mouse
# Assay type: in vitro ADME
# Applied Conditions: Mouse (CD-1) microsomes
Value Kind: half-life (h)
Reply with just the number (in h).

Item Cc1cccc(NC(=O)c2ccc(OCc3c(C)noc3C)cc2)c1C : provide half-life
4.6

* * *

# Run Description: Microsome t1/2, human
# Type: in vitro ADME
# Applied Conditions: Human microsomes
Value Kind: half-life (h)
Reply with just the number (in h).

Item Cc1cccc(NC(=O)c2ccc(OCc3c(C)noc3C)cc2)c1C : provide half-life
19.3

* * *

# Run Description: Microsome t1/2, rat
# Format: in vitro ADME
# Applied Conditions: Rat (SD) microsomes
Value Kind: half-life (min)
Reply with just the number (in min).

Item Cc1cccc(NC(=O)c2ccc(OCc3c(C)noc3C)cc2)c1C : provide half-life
217
